target: T1, Recombinant human CD4 (R&D Systems, Cat. 10327-CD) (human, UniProt P01730 26-390, limits assumed); assay: BLI (Octet Red384), purified antibody on anti-mouse Fc sensors, human CD4 100/50/25 nM, global 1:1 fit;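 also: antibodies loaded at 10 µg/mL, curves fitted across association and dissociation phases, with an unrelated mouse-derived antibody serving as internal reference control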
T1 construct: Bought protein; also called huCD4
ENDPOINT LABEL: Kd
Remember to put the unit after the number in your answer.

Below, 6 binders whose answers are already recorded.
{"columns": ["BINDER", "ASSAY RESULT"],
 "data": [
  ["75110_06E14A (antibody, V domains shown, Tested as antibody purified from AlivaMab Mouse Kappa hybridoma (human V regions, kappa light chain, mouse Fc captured by anti-mouse Fc sensors)) VH: QVQLQESGPGLVKPSETLSLTCTVSGGSISNYFWSWIRQPAGKGLEWIGRIYSSGNTNYNPSLKSRVTMSVDTSKNQFSLKLSSVTAADTAVYYCARDREDYYYYGMDVWGQGTTVTVSS VL: DIQMTQSPSSLSASVGDRVTITCQASQDISNYLNWYQQKPGKAPKLLIYGASILETGVPSRFTGSGSGTDFTFTISSLQPEDIATYYCQQYDSLPITFGQGTRLEIK", "14 nM"],
  ["75110_11D03A (antibody, V domains shown, Tested as antibody purified from AlivaMab Mouse Kappa hybridoma (human V regions, kappa light chain, mouse Fc captured by anti-mouse Fc sensors)) VH: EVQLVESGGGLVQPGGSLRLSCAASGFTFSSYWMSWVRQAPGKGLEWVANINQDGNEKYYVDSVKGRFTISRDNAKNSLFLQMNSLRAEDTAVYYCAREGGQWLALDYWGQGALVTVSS VL: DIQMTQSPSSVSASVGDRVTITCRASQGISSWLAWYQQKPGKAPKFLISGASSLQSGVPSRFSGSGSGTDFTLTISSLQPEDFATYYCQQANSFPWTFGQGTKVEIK", "3.2 nM"],
  ["75110_10N21A (antibody, V domains shown, Tested as antibody purified from AlivaMab Mouse Kappa hybridoma (human V regions, kappa light chain, mouse Fc captured by anti-mouse Fc sensors)) VH: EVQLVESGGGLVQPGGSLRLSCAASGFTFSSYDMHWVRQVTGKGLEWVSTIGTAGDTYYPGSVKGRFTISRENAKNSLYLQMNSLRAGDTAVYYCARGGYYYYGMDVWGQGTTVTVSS VL: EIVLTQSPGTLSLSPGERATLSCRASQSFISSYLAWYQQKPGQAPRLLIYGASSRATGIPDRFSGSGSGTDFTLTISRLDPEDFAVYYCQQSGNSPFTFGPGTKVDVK", "0.59 nM"],
  ["75110_14I16A (antibody, V domains shown, Tested as antibody purified from AlivaMab Mouse Kappa hybridoma (human V regions, kappa light chain, mouse Fc captured by anti-mouse Fc sensors); also called 75110_14116A) VH: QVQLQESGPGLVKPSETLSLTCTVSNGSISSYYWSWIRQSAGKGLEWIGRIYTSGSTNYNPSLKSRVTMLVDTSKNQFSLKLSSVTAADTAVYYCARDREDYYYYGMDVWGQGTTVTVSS VL: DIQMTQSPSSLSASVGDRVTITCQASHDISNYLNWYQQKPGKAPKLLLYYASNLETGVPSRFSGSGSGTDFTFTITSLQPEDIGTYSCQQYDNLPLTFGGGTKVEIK", "10 nM"],
  ["75110_07J24A (antibody, V domains shown, Tested as antibody purified from AlivaMab Mouse Kappa hybridoma (human V regions, kappa light chain, mouse Fc captured by anti-mouse Fc sensors); also called 75110_07124A) VH: QAQLQESGPGLVKPSETLSLTCTVSGGSISSYYYNWIRQPAGKGLEWIGRIYTSGRTDYNPSLKSRVTMSADTSKNQFSLKLSSVTAADTAVYYCARDEGPTDAFDIWGQGTMVTVSS VL: DIVMTQTPLSLPVTPGEPASISCRSSQSLLDSDDGNTYLDWYLQKPGQSPHLLIYTLSYRASGVPDRFSGSGSGSDFTLKISRVEAEDVGVYYCMQRIEFPFTFGPGTKVDIK", "7.1 nM"],
  ["75110_06K03A (antibody, V domains shown, Tested as antibody purified from AlivaMab Mouse Kappa hybridoma (human V regions, kappa light chain, mouse Fc captured by anti-mouse Fc sensors)) VH: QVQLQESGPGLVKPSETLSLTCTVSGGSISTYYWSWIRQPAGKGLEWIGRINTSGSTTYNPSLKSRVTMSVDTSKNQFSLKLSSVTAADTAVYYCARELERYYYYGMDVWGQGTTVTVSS VL: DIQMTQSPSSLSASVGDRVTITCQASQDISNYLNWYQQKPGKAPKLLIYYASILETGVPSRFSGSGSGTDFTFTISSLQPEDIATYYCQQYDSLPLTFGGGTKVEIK", "2.2 nM"]
]}

Ask | I am curious: what Kd value has been reported for 75110_07H07A (antibody, V domains shown, Tested as antibody purified from AlivaMab Mouse Kappa hybridoma (human V regions, kappa light chain, mouse Fc captured by anti-mouse Fc sensors)) VH: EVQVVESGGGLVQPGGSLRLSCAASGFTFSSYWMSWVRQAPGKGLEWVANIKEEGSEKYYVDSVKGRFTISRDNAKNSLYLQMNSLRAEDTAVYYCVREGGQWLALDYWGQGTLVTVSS VL: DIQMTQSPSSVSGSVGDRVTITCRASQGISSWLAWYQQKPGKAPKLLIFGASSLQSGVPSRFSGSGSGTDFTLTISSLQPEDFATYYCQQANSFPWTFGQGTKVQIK ?
Reply | 9.4 nM

Ask | Quick one: 75110_07J02A (antibody, V domains shown, Tested as antibody purified from AlivaMab Mouse Kappa hybridoma (human V regions, kappa light chain, mouse Fc captured by anti-mouse Fc sensors); also called 75110_07102A) VH: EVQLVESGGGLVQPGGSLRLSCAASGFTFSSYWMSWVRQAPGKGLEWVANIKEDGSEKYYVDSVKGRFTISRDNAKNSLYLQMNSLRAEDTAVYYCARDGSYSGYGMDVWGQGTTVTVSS VL: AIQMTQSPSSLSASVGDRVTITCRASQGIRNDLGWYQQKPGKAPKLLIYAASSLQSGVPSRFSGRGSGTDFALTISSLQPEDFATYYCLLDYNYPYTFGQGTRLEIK
Reply | 14 nM

Ask | Quick one: 75110_12K21A (antibody, V domains shown, Tested as antibody purified from AlivaMab Mouse Kappa hybridoma (human V regions, kappa light chain, mouse Fc captured by anti-mouse Fc sensors)) VH: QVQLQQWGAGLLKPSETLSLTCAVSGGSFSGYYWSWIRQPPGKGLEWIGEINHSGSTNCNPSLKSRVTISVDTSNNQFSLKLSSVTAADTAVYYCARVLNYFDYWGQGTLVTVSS VL: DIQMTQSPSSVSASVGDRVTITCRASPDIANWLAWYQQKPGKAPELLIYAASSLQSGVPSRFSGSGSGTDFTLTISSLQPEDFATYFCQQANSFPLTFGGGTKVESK
Reply | 1.8 nM

Ask | Quick one: 75110_14N19A (antibody, V domains shown, Tested as antibody purified from AlivaMab Mouse Kappa hybridoma (human V regions, kappa light chain, mouse Fc captured by anti-mouse Fc sensors)) VH: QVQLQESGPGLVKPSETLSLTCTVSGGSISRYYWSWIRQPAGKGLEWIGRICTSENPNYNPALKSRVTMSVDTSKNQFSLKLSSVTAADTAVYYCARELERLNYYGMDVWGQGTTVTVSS VL: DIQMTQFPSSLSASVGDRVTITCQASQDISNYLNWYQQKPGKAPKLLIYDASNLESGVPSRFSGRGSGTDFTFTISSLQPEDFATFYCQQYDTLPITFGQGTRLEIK
Reply | 11 nM
